These data points were gathered from the supplement of paper PMC10567573.

B1: KRT15 (parent)
chain: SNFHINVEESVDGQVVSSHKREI

- Variants of: B1
- assay-name: protein stability index of a GFP-peptide fusion (GPS, HEK-293T) (PSI 1-6); higher = more stable;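 note: lentivirally expressed fusions sorted by FACS into six bins by GFP to DsRed ratio, PSI derived from sequencing read proportions per bin multiplied by bin number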
- run-parameters: c terminus: native
Kindly return fulfilled if reported protein stability index is no lower than 2; return not fulfilled if it is lower.

Some solved entries appear below for comparison.
mutant-code: V11I
label: fulfilled

mutant-code: E22A
label: fulfilled

mutant-code: E9D
label: fulfilled

mutant-code: K20Q
label: fulfilled

mutant-code: V7P
label: fulfilled

Answer whether protein stability index of D12E is greater than or equal to 2.
fulfilled

Answer whether protein stability index of K20P is greater than or equal to 2.
not fulfilled

Answer whether protein stability index of S17R is greater than or equal to 2.
not fulfilled
